EXPERIMENTAL_TARGET: ligand binding domain of human FXR (Homo sapiens (Human), UniProt Q96RI1)
Sequence (Q96RI1 262-486): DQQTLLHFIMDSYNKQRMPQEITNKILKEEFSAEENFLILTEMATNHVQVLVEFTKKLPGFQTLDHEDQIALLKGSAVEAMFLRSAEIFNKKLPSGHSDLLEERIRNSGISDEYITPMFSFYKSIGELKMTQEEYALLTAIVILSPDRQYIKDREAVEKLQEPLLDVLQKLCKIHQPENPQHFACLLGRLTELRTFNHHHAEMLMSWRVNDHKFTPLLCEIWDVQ
PROTOCOL_DESCRIPTION: FXR ligand binding assay (LanthaScreen FRET)
MEASUREMENT_CONDITIONS: read-out: % Efficacy
Reported Emax values for a set of compounds
Give the number; % is assumed, so skip it.

Consider the following illustrative entries.
1. O=C(O)c1cc(F)c2nc(N3[C@@H]4CC[C@H]3C[C@@H](OC(=O)c3c(-c5ccccc5OC(F)(F)F)noc3C3CC3)C4)sc2c1 [Compound I-14] = 147
2. O=C(O)c1cc(F)c2nc(N3[C@@H]4CC[C@H]3C[C@@H](OC(=O)c3c(-c5c(Cl)cccc5Cl)noc3C3(F)CC3)C4)sc2c1 [Compound I-27] = 107
3. O=C(Cc1c(-c2c(Cl)cccc2Cl)noc1C1CC1)O[C@H]1C[C@H]2CC[C@@H](C1)N2c1nc2c(F)cc(C(=O)O)cc2s1 [Compound I-32] = 34
4. O=C(O)c1cc(F)c2nc(N3[C@@H]4CC[C@H]3C[C@@H](OC(=O)c3c(C5CCC6(CC5)CC6)noc3C3CC3)C4)sc2c1 [Compound I-19] = 55

Now for another entry.
stdin: State, in one line, measured Emax of O=C(O)c1cc(F)c2nc(N3[C@@H]4CC[C@H]3C[C@@H](OC(=O)c3c(-c5c(F)cccc5F)noc3C3CC3)C4)sc2c1 [Compound I-16]
stdout: 47
